system: M14; assay: NCI tumour cell line growth inhibition, 48 h
Activity calls are given as the source filed them. No stated cut-off is given here; in the data, active = GI50 up to about 1.1 µM and inactive = higher.
Give your call using only these classes: active, inactive

// known answers, use as guide
{"MOLECULE": "C/C(=N\\NC(=S)N1CCN(c2ccccn2)CC1)c1nccs1", "DISCRETE LABEL": "active"}
{"MOLECULE": "C=C1CC(Cn2ccc(=O)[nH]c2=O)(c2ccc(-c3ccccc3)cc2)OC1=O (stereo not given)", "DISCRETE LABEL": "inactive"}
{"MOLECULE": "O=C1CC2(CCC(O)(c3ccc(Cl)cc3)C(C(=O)c3ccc(Cl)cc3)C2)C(=O)c2ccccc2N1 (stereo not given)", "DISCRETE LABEL": "inactive"}
{"MOLECULE": "Cc1cn(CCOCCOC(=O)NC(CCCNC(N)=O)C(=O)O)c(=O)[nH]c1=O (stereo not given)", "DISCRETE LABEL": "inactive"}
{"MOLECULE": "CCOc1ccc(/N=N/c2c(-c3ccccc3)nn(C(=O)CC(=O)Nc3ccccc3Cl)c2-c2ccccc2)cc1", "DISCRETE LABEL": "inactive"}
{"MOLECULE": "CCCCCc1cc2cc3c(c(O)c2c(=O)[nH]1)C1(CCC3)C(=O)c2c(O)c3c(c(O)c2C1=O)C(=O)C(OC)=CC3=O (stereo not given)", "DISCRETE LABEL": "active"}

Turning now to a further record.
Recorded test outcome, item CCOC(=O)/C(C#N)=C(O)/C(=C/c1ccccc1Cl)NC(=O)c1ccccc1
inactive

----------
test system: K562; experiment: NCI tumour cell line growth inhibition, 48 h
Activity calls are given as the source filed them. Rule as the data show it: active = GI50 up to about 1.1 µM and inactive = higher.
Listing: GI50 of selected compounds

{"COMPOUND": "N=C1N(c2ccccc2)C(=O)C23CCCC2C13N1CCOCC1 (stereo unspecified)", "GI50": "> 100 µM (inactive)"}
{"COMPOUND": "Cc1c/c(=N/NC(=O)c2ccncc2)n2nc(N)sc2n1", "GI50": "> 100 µM (inactive)"}
{"COMPOUND": "COC(=O)[C@@H]1[C@H](O)[C@H](C)[C@H](O)[C@@](C)(O)/C=C\\C=C(\\C)C(=O)Nc2c(C)c(OC(C)=O)c3c(c2O)C(=O)C(C)=C2OCOC(=C23)/C(C)=C/[C@@](C)(O)[C@H](O)[C@@H](C)[C@H]1OC(C)=O", "GI50": "23.4 µM (inactive)"}
{"COMPOUND": "Cc1c2n(c3ccccc13)CC1CON(C)C21 (stereo unspecified)", "GI50": "> 100 µM (inactive)"}
{"COMPOUND": "Cc1ccc(C(=O)Nc2ccc(CP(=O)(O)O)cc2CP(=O)(O)O)cc1NC(=O)Nc1cc(C(=O)Nc2ccc(CP(=O)(O)O)cc2CP(=O)(O)O)ccc1C", "GI50": "> 100 µM (inactive)"}

Which GI50 value is on record for CCOC(=O)c1nc2ccc(C(F)(F)F)cc2nc1Nc1cc(OC)c(OC)c(OC)c1 ?
> 100 µM (inactive)

----------
test system: IGROV-1; assay: NCI tumour cell line growth inhibition, 48 h
Calls of active or inactive are those of the source. Rule as the data show it: active = GI50 up to about 1.1 µM and inactive = higher.
Give your call using only these classes: active, inactive

// known answers, use as guide
{"COMPOUND": "CC(=O)Nc1ccc(-c2nc3ccccc3s2)cc1Br", "DISCRETE LABEL": "active"}
{"COMPOUND": "CC1(C)CN=C(Nc2ccc(F)c(Cl)c2)S1", "DISCRETE LABEL": "inactive"}
{"COMPOUND": "CC12CCC(=O)[C@@]1(C)CCCC2=O (some centres undefined)", "DISCRETE LABEL": "inactive"}
{"COMPOUND": "CC(=O)OCC1OC(n2c3c(cc(C#N)c2=S)CCC3)C(OC(C)=O)C(OC(C)=O)C1OC(C)=O (centres undefined)", "DISCRETE LABEL": "inactive"}
{"COMPOUND": "CCOC(=O)c1cc(C(=O)O)c(=O)n2c1[nH]c1ccccc12", "DISCRETE LABEL": "inactive"}

Recorded test outcome, item CC(=O)O[C@H]1C#C/C=C\C#CC[C@@H]2C(=O)N(C(=O)OC(C)(C)C)[C@@H]12
inactive

Recorded test outcome, item COc1ccc(NCc2cc(OC)cc(OC)c2)cc1
inactive

Recorded test outcome, item CCCCCCCCCCCCCCCCCCN(C)CC(COP(=O)([O-])OCC[N+](C)(C)C)OC (centres undefined)
inactive

Recorded test outcome, item CCOC(=O)C1=C(C)N2CCOC2(C)C(C(=O)OC)C1c1cccc(Cl)c1 (centres undefined)
inactive

Recorded test outcome, item S=C(Nc1ccc2c(c1)oc1ccccc12)c1cccnc1
inactive

Recorded test outcome, item c1ccc2c(c1)[nH]c1c3ccccc3sc21
inactive

Recorded test outcome, item CCOc1ccc(C2c3[nH]c4ccccc4c3CCN2C(=O)c2cccs2)cc1 (centres undefined)
inactive

Recorded test outcome, item N#Cc1cnn2cc[nH]c12
inactive

Recorded test outcome, item CC1=NN(c2ccc(S(=O)(=O)O)cc2)C(=O)/C1=C/c1ccc(Cl)cc1.c1ccncc1
inactive

----------
Listing: GI50 of selected molecules
tested on: SW-620; test: NCI tumour cell line growth inhibition, 48 h
Calls of active or inactive are those of the source. No stated cut-off is given here; in the data, active = GI50 up to about 1.1 µM and inactive = higher.

// known answers, use as guide
{"MOLECULE": "CC(=O)OC1C/C(C)=C/CCC(C)/C=C/C2(C)CCC(C(C)(C)O)C12 (centres undefined)", "TARGET ENTITY": "SW-620", "READOUT NAME": "GI50", "MEASURED": "47.5 µM (inactive)"}
{"MOLECULE": "CC(C)(C)N(Cc1ccoc1)C(=O)/C=C\\[S+]([O-])c1ccccc1 (centres undefined)", "TARGET ENTITY": "SW-620", "READOUT NAME": "GI50", "MEASURED": "10.2 µM (inactive)"}
{"MOLECULE": "CCCCN(CCCC)C1(c2cc3ccccc3s2)CCCCC1.[O-][Cl+3]([O-])([O-])O", "TARGET ENTITY": "SW-620", "READOUT NAME": "GI50", "MEASURED": "15 µM (inactive)"}

Please find the next molecule below.
Please provide the recorded GI50 for Cc1cccc(NC(=O)C(=O)C(C2OC(=O)c3ccccc32)[N+](=O)[O-])c1C (centres undefined) , tested on SW-620.
5.57 µM (inactive)

----------
Listing: GI50 of selected compounds
system: HOP-62; assay: NCI tumour cell line growth inhibition, 48 h
Active and inactive are the calls of the source. Rule as the data show it: active = GI50 up to about 1.1 µM and inactive = higher.

// known answers, use as guide
{"COMPOUND": "CC(=O)Nc1ccc(C2=N/C(=C\\c3ccc(Cl)cc3)C(=O)O2)cc1", "MEASURED": "> 100 µM (inactive)"}
{"COMPOUND": "COC(=O)CC1NC(=O)C1C1(C)OCCO1 (stereo not drawn)", "MEASURED": "> 100 µM (inactive)"}
{"COMPOUND": "OC(c1ccc(-c2ccccc2)cc1)C(F)(F)c1nc2ccccc2o1 (stereo not drawn)", "MEASURED": "30.7 µM (inactive)"}
{"COMPOUND": "CSc1ccccc1P(c1ccccc1SC)c1ccccc1SC", "MEASURED": "25.4 µM (inactive)"}
{"COMPOUND": "Cc1ccc(SSCCCCS(=O)O)cc1", "MEASURED": "28.7 µM (inactive)"}

Which GI50 value is on record for Cc1cc(Br)cc(C)c1NC(=O)C(=O)CC(=O)c1sc(-n2nc(-c3ccccc3)cc2-c2ccccc2)nc1C ?
> 100 µM (inactive)

Which GI50 value is on record for O=[N+]([O-])c1ccc(O)c(/C=N/NC(=S)N2CCCCC2)c1 ?
5.74 µM (inactive)

Which GI50 value is on record for Cc1cn(CCOCCOC(=O)NC(CCCNC(N)=O)C(=O)O)c(=O)[nH]c1=O (stereo not drawn) ?
> 100 µM (inactive)

----------
test system: UACC-257; assay: NCI tumour cell line growth inhibition, 48 h
Active and inactive are the calls of the source. No stated cut-off is given here; in the data, active = GI50 up to about 1.1 µM and inactive = higher.
READOUT NAME: GI50

// known answers, use as guide
{"MOLECULE": "CCCCCCCCCCCCCCCCCCN(C)CC(COP(=O)([O-])OCC[N+](C)(C)C)OC (configuration not stated)", "READOUT NAME": "GI50", "MEASURED": "35.3 µM (inactive)"}
{"MOLECULE": "CN(C)CCNC(=O)c1cccc(CO)c1[N+](=O)[O-]", "READOUT NAME": "GI50", "MEASURED": "> 100 µM (inactive)"}
{"MOLECULE": "O=c1c2ccccc2c(=O)n2n1CC=CC2", "READOUT NAME": "GI50", "MEASURED": "> 100 µM (inactive)"}

Which GI50 value is on record for CC(=O)c1cccc(Nc2nc3ccccc3c3occc23)c1 ?
> 100 µM (inactive)

Which GI50 value is on record for NCCSc1nc(-c2ccccc2)c(-c2ccccc2)o1 ?
41.2 µM (inactive)

Which GI50 value is on record for CC(C)c1cccc(=O)c(O)c1 ?
1.66 µM (inactive)

Which GI50 value is on record for CCOC(=O)C1NCCc2c1[nH]c1ccccc21 (configuration not stated) ?
> 10 µM (inactive)

Which GI50 value is on record for C/C(CC(=O)Nc1ccc(C)cc1)=N\NC(N)=S ?
> 100 µM (inactive)

Which GI50 value is on record for COC(=O)CC1NC(=O)C1C1(C)OCCO1 (configuration not stated) ?
> 100 µM (inactive)
